# experimental.details: binders of probe aHhip on microarray, primary screen, stem cell growth factor project, biochemical, small-molecule microarray, fluorescence 635/667 (AID 1087);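 also: score merges spot fluorescence at 667nm with spot signal to noise ratio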
# measurement.setup: higher = more signal
Below, each entry is listed with its recorded composite z-score.
Lab note: record just the number, no unit beside it.

Worked set:
INSERT INTO results (smiles_entry, reported) VALUES
  ('[N-]=[N+]=NCc1ccccc1C[C@@]1(C(=O)O)N=C(c2ccc(OCCCO)cc2)O[C@@H]1c1ccccc1N=[N+]=[N-]', -0.0994),
  ('C=C[C@H](OC)[C@@H](OC(=O)Nc1ccc(SC)cc1)c1ccc(OC)c(O)c1', -0.0994),
  ('COc1cc2c(cc1OC)CN(C(=O)[C@@H]1[C@H]3C(=O)O[C@H](c4ccccc4)[C@H](c4ccccc4)N3[C@H](c3ccccc3OCCO)[C@@]13C(=O)Nc1ccccc13)CC2', -0.702);

Kindly indicate its recorded composite z-score. Item: CC(C)CNC(=O)[C@@]1(C)c2ccccc2C(=O)N(Cc2ccc(OC(F)(F)F)cc2)[C@H]1c1ccc(CO)cc1
-0.353

###

# System: glycogen synthase kinase-3 (GSK3A per assay name; protocol says GSK3B)
# experimental.details: GSK3 binders on small-molecule microarrays, primary screen, biochemical, small-molecule microarray, 635 nm fluorescence, GSK3A (AID 1103); also: the record names both GSK3A and GSK3B
# measurement.setup: small-molecule microarray binding, fluorescence 635 nm; higher = more signal
Everything with composite z-score lower than 0.3 is f; everything else, including exactly 0.3, is t.

INSERT INTO assay_data (molecule, class_name) VALUES
  ('N#Cc1ccc(NN2C(C(O)CCc3ccccc3)C=CC3C(=O)N(c4ccccc4)C(=O)C32)cc1 (centres undefined)', 't'),
  ('Cc1cc(C)c(C(O)C2C=CC3C(=O)N(C)C(=O)C3N2N2CCCCC2)c(C)c1 (centres undefined)', 't'),
  ('C[C@@H]1NC(=O)[C@H](Cc2ccccc2)NC(=O)[C@@]23C(=O)N[C@@H](Cc4ccccc4)C2[C@H](C)[C@@]2(C)O[C@H]2C3/C=C/C/C=C\CNC1=O (some centres undefined)', 'f');

Moving on to the next molecule.
Given the entry COc1ccc([C@H]2C[C@H]3C(Br)=C[C@]2(OC)C(=O)[C@]32CO2)cc1 , answer whether its composite z-score meets or surpasses 0.3.
f

###

# experimental.details: small-molecule binders of probe aLefty1, primary screen, biochemical, small-molecule microarray, 635/667 nm fluorescence (AID 1153);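 also: score merges spot fluorescence with signal-to-noise ratio from the scanned slide images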
# measurement.setup: higher = more signal
measured.endpoint: composite z-score
Lab note: record just the number, no unit beside it.

Worked set:
INSERT INTO assay_data (smiles_entry, measured_endpoint, reported) VALUES
  ('COC(=O)[C@@]1(Cc2ccc(OC)cc2)[C@H]2c3cc(C(=O)N(C)C)n(Cc4ccc(C)c(F)c4F)c3C[C@H]2CN1C(=O)c1ccccc1', 'composite z-score', 0.187),
  ('COc1ccc(CCNC(=O)[C@@]2(c3ccc([N+](=O)[O-])cc3)CC(=O)N(C(C)C)[C@@H]2c2ccc(CO)cc2)cc1', 'composite z-score', -0.0353),
  ('COc1cc2c(cc1OC)CN(C(=O)[C@@H]1[C@H]3C(=O)O[C@H](c4ccccc4)[C@H](c4ccccc4)N3[C@H](c3ccccc3OCCO)[C@@]13C(=O)Nc1ccccc13)CC2', 'composite z-score', 0.551),
  ('CO[C@@H]1COC(=O)[C@H](COCc2ccccc2)NC(=O)CC=C[C@@H](C)[C@H](OC)COC(=O)[C@H](COCc2ccccc2)NC(=O)CC=C[C@H]1C', 'composite z-score', 0.113),
  ('CCOC(=O)[C@H]1C/C=C/C[C@H](C(=O)OCC)C(=O)O[C@H]2[C@@H](OC)O[C@H](CO)[C@@H](OC(=O)Nc3ccc(Br)cc3)[C@@H]2OC1=O', 'composite z-score', 0.0606);

Please look at the following compound next.
Kindly indicate its recorded composite z-score. Item: COc1ccc([Si](C)(C)[C@H]2[C@H](CCO)O[C@@]3(C(=O)N(Cc4ccc(N5CCCCC5=O)cc4)c4ccccc43)[C@@H]2C)cc1
0.0361

###

# experimental.details: modulators of S6 phosphorylation in cells, primary screen, cell-based, A549, cytoblot, luminescence, serum-stimulated (AID 1158);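 also: serum-stimulated A549 lung adenocarcinoma cells; signal is phosphorylated S6 detected by cytoblot immunostaining with HRP secondary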
# measurement.setup: A549 phospho-S6 cytoblot, 5 h, higher = more signal
Everything with z-score lower than 0.5 is FALSE; everything else, including exactly 0.5, is TRUE.

Recorded results for 4 compounds are shown here.
INSERT INTO assay_data (smiles_entry, class_name) VALUES
  ('CO[C@H]1O[C@H](CO)[C@@H](OC(=O)Nc2ccccc2)[C@H](OC(=O)Nc2ccc3c(c2)OCO3)[C@@H]1OC(=O)Nc1ccc2c(c1)OCO2', 'TRUE'),
  ('O=C1c2ccccc2[C@](Cc2ccccc2I)(C(=O)NCc2ccccc2)[C@H](c2ccc(CO)cc2)N1Cc1ccccc1C(F)(F)F', 'TRUE'),
  ('COc1ccc([Si](C)(C)[C@@H]2[C@@H](CC(=O)N(CCO)Cc3ccccc3)O[C@]3(C(=O)N(Cc4cccc(N5CCC5=O)c4)c4ccccc43)[C@H]2C)cc1', 'TRUE'),
  ('C[C@@H]1CC[C@H]2C(=O)N3CCC[C@H]3C(=O)N2[C@H]1c1ccc(Br)cc1', 'FALSE');

Given the entry Cc1ccc(N2C(=O)c3ccccc3[C@@H](C(=O)NCc3ccccc3)[C@@H]2c2ccc(CO)cc2)nc1 , answer whether its z-score meets or surpasses 0.5.
FALSE

Given the entry C#CCCCON=C1C[C@@H](O)[C@@H](O)[C@@H]2[C@@H]3C(=O)N(Cc4ccc5c(c4)OCO5)C(=O)[C@@H]3CC[C@@H]12 , answer whether its z-score meets or surpasses 0.5.
FALSE

Given the entry COc1ccc([Si](C)(C)[C@H]2[C@H](CCO)O[C@@]3(C(=O)N(Cc4ccc(N5CCCCC5=O)cc4)c4ccccc43)[C@@H]2C)cc1 , answer whether its z-score meets or surpasses 0.5.
TRUE

###

# experimental.target: NADPH oxidase 2 (Homo sapiens) (UniProt P04839)
# Sequence (P04839 whole entry, looked up): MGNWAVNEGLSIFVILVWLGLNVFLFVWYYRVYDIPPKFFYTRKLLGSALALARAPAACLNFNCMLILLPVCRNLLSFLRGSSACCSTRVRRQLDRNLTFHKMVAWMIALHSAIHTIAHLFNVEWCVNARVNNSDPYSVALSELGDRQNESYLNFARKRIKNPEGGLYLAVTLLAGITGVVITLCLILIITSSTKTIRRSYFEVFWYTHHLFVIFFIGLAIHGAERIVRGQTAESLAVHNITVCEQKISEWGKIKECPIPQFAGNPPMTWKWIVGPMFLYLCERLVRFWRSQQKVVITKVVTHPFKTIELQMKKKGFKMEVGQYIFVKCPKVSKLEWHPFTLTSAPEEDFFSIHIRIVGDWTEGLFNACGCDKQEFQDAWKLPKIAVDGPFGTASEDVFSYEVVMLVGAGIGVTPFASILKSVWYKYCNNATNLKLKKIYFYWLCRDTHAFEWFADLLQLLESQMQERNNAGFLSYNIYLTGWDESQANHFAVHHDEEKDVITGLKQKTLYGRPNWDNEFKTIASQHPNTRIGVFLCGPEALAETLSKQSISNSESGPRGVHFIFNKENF
# experimental.details: NOX2-dependent H2O2 signal modulators, primary screen, NOX inhibitor project, cell-based, HEK293-NOX2, PMA-stimulated, Amplex Red fluorescence (AID 1159); also: test concentration not given here
# measurement.setup: 45 min, higher = more signal, called active from +8 up or from −8 down
measured.endpoint: z-score
Lab note: record just the number, no unit beside it.

INSERT INTO assay_data (smiles_entry, experimental_target, reported) VALUES
  ('C[N+](C)(C)CCCCNC(=O)[C@@H]1C[C@@H]2C(=O)N3CCC[C@H]3C(=O)N2[C@@H]1c1cccc(OCCO)c1', 'NADPH oxidase 2 (Homo sapiens) (UniProt P04839)', -1.42),
  ('O=C1O[C@H](c2ccccc2)[C@H](c2ccccc2)N2[C@H]1[C@@H](C(=O)Nc1nc3ccccc3s1)[C@]1(C(=O)Nc3ccc(C#CC4(O)CCCCCC4)cc31)[C@H]2c1ccc(O)cc1', 'NADPH oxidase 2 (Homo sapiens) (UniProt P04839)', 1.03),
  ('[N-]=[N+]=NCc1ccccc1[C@H]1OC(c2ccc(OCCCO)cc2)=N[C@@]1(Cc1ccccc1N=[N+]=[N-])C(=O)NCc1ccccc1', 'NADPH oxidase 2 (Homo sapiens) (UniProt P04839)', -0.627),
  ('COCC(=C=CC[C@H](O)c1ccc(OCCO)cc1)C[C@H](O)c1ccccn1', 'NADPH oxidase 2 (Homo sapiens) (UniProt P04839)', 2.36),
  ('CC(=O)NCCCC[C@@H]1NC(=O)[C@H]2C[C@@H](C(=O)NCCCCCCN(C)C)[C@@H](c3cccc(OCCO)c3)N2C1=O', 'NADPH oxidase 2 (Homo sapiens) (UniProt P04839)', 0.779);

Please look at the following compound next.
Kindly indicate its recorded z-score. Item: C=CCNC(=O)[C@@H]1[C@H]2C(=O)O[C@H](c3ccccc3)[C@H](c3ccccc3)N2[C@H](c2ccc(OCCO)cc2)[C@@]12C(=O)N(C(=O)OCCOC)c1ccc(C#CC3(O)CCCCCC3)cc12
1.03

###

# experimental.details: cell viability in Huh7 cells, primary screen, cytotoxicity control for HCV replication inhibitor project, CellTiter-Glo luminescence, basal, 48 h (AID 1143);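 also: Huh7 hepatoma cells carrying a hepatitis C replication reporter with no stimulus; test concentration not given here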
# measurement.setup: Huh7 HCV replicon, higher = more signal, called active from +8 up or from −8 down
Below, each entry is listed with its recorded z-score.
Lab note: record just the number, no unit beside it.

Worked set:
INSERT INTO measurements (compound, reported) VALUES
  ('O=C1c2ccccc2[C@@]2(Cc3ccccc3N(CC(F)(F)F)C2=O)[C@H](c2ccc(CO)cc2)N1C1CCCCC1', -0.323),
  ('C[C@@H]1NC(=O)CC=C[C@@H](C)[C@@H]2C=C[C@H](O)[C@@H](COC(=O)[C@H](C)NC(=O)CC=C[C@@H](C)[C@@H]3C=C[C@H](O)[C@@H](COC1=O)O3)O2', -3.48),
  ('COc1ccc([Si](C)(C)[C@H]2[C@H](CC(=O)N3Cc4ccccc4C[C@H]3CO)O[C@@]3(C(=O)N(Cc4cccc(N5CCOC5=O)c4)c4ccccc43)[C@@H]2C)cc1', -3.32),
  ('C=CCC(OC(C)=O)[C@@H]1[C@@H](N(Cc2cc3ccccc3o2)C(=O)c2ccc(C)cc2)c2cc(OCCCO)ccc2N1C(=O)c1ccc2ccccc2n1 (stereo partly specified)', -0.17),
  ('CC[C@@H]1C=C(C(=O)O)[C@H](c2ccccc2)N1S(=O)(=O)c1ccc([N+](=O)[O-])cc1', -0.979);

Please look at the following compound next.
Kindly indicate its recorded z-score. Item: COC(=O)Cn1c(C(=O)N2CCCC2)cc2c1C[C@H]1CN(C(=O)c3ccccc3)[C@@](Cc3ccccc3)(C(=O)OC)[C@@H]21
-0.259
